- System: OVCAR-8
- experimentSummary: NCI tumour cell line growth inhibition, 48 h
The source made the active and inactive calls. Rule as the data show it: active = GI50 up to about 1.1 µM and inactive = higher. Residues, ends and D or L forms follow the SMILES beside them. *: point of attachment. Boc = CC(C)(C)OC(=O)*
Outcomes you can answer with include only these: active, inactive

Qu. Outcome? COC1O[C@H]2CCN(C(=O)OCc3ccccc3)[C@H]2[C@H]1OCc1ccccc1 (some centres not stated)
Ans. inactive

Qu. Which result was noted for this molecule in the test: CC(=O)NNc1nc(C)c(C(=O)NNC(=O)C(=O)Nc2ccc(C)c(C)c2)s1
Ans. inactive

Qu. Please share the test call associated with COc1ccc(/C=C(\C2=NC(=O)CS2)c2nc3ccccc3[nH]2)cc1 .
Ans. inactive

Qu. // return assay outcome for CC(NC(=O)C(NC(=O)OC(C)(C)C)C(C)C)C(=O)N1CCCC1C(=O)NCC(=O)NC(C(=O)NCC(=O)O)C(C)C (configuration not stated) (Boc-VAPGVG-OH; configuration not given here)
Ans. inactive

Qu. Any idea what this test logged for COC(=O)C(Cc1ccccc1)NC(=O)C(CNC(=O)OCc1ccccc1)C(=O)OCc1ccccc1 (configuration not stated) ?
Ans. inactive

Qu. Per the assay record, what outcome was assigned to Cc1cn2c(/C=N/NC(=N)N)c(-c3ccc(Cl)c([N+](=O)[O-])c3)nc2s1 ?
Ans. active

Qu. Tell me the assay call for Cc1ccc(S(=O)(=O)N/N=C(/c2nc3ccc([N+](=O)[O-])cc3nc2O)C(O)c2ccc(C(O)/C(=N\NS(=O)(=O)c3ccc(C)cc3)c3nc4ccc([N+](=O)[O-])cc4nc3O)cc2)cc1 (configuration not stated) please.
Ans. inactive

====

- System: SNB-19
- experimentSummary: NCI tumour cell line growth inhibition, 48 h
Activity calls are given as the source filed them. Cut-off read from the data, not from the text of the source: active = GI50 up to about 1.1 µM and inactive = higher.
Output constraint: value belongs to True (active), False (inactive)

compound	cat
CC(C)=CC(O)C(C(O)CCC1(C)OCCO1)S(=O)(=O)c1ccccc1 (centres undefined)	False

Qu. // return assay outcome for CC12CCC(C)(c3cc(O)c(O)cc31)c1cc(O)c(O)cc12
Ans. False

Qu. GET /call?item= C[C@@H]1CC(=O)C[C@@H]2CC[C@H]3[C@@H]4CC[C@H](OC(=O)c5cccc6cc7ccccc7nc56)[C@H]4CC[C@@H]3[C@H]21 returns the recorded outcome of this test.
Ans. False

Qu. Which result was noted for this compound in the test: O=[N+]([O-])c1cccc(/N=N/c2c(O)c(S(=O)(=O)O)cc3cc(S(=O)(=O)O)ccc23)c1
Ans. False

Qu. // param item: O=C(OCC(Cl)(Cl)Cl)O[C@@H]1CCCC1(c1ccccc1)c1ccccc1 ; yields the recorded call
Ans. False

Qu. Each compound tested received a call. Report the one for O=C(CN1CCCCC1)N1CCc2c([nH]c3ccccc23)C1c1cccnc1 (centres undefined) .
Ans. False

Qu. // param item: Cc1cccc2nc3c(=O)[nH]c(=O)nc-3n(C)c12 ; yields the recorded call
Ans. False

Qu. How was CC1(C)C(=O)C=CC2(C)C1CC(O)C1(C)C2CCC2(C)C(c3ccoc3)OC(=O)C3OC321 (centres undefined) classified in this test?
Ans. False

Qu. Look up the recorded call for COc1cc2c(c(OC)c1OC)-c1ccc(OC)c(=O)cc1C(NC(=O)COc1ccccc1)CC2 (centres undefined) in this test.
Ans. True
